Data provenance: ChEMBL document CHEMBL1143241

- protocol-notes: Solubility at pH 7.4 in 98% saline
- Type: physicochemical
// values below are reported solubility
Field format: number, assumed mg/mL, no unit text.

Worked examples, 5 compounds total:
{"smiles-representation": "O=C(O)c1ccc2nc(-c3ccc(CN4CCC(n5c(=O)[nH]c6ccccc65)CC4)cc3)c(-c3ccccc3)nc2c1", "scale-unit": "mg/mL", "measured-value": 18}
{"smiles-representation": "O=C(O)c1ccc2nc(-c3ccccc3)c(-c3ccc(CN4CCC(n5c(=O)[nH]c6ccccc65)CC4)cc3)nc2c1", "scale-unit": "mg/mL", "measured-value": 18}
{"smiles-representation": "CCN(CC)CCNC(=O)c1ccc2nc(-c3ccccc3)c(-c3ccc(CN4CCC(n5c(=O)[nH]c6ccccc65)CC4)cc3)nc2c1", "scale-unit": "mg/mL", "measured-value": 18}
{"smiles-representation": "O=c1[nH]c2ccccc2n1C1CCN(Cc2ccc(-c3nc4ccc(-c5nnn[nH]5)cc4nc3-c3ccccc3)cc2)CC1", "scale-unit": "mg/mL", "measured-value": 18}
{"smiles-representation": "CCN(CC)CCNC(=O)c1ccc2nc(-c3ccc(CN4CCC(n5c(=O)[nH]c6ccccc65)CC4)cc3)c(-c3ccccc3)nc2c1", "scale-unit": "mg/mL", "measured-value": 18}

Proceed to the following item.
The compound listed as "O=c1[nH]c2ccccc2n1C1CCN(Cc2ccc(-c3nc4cc(-c5nnn[nH]5)ccc4nc3-c3ccccc3)cc2)CC1" shows solubility equal to 18
